meta.source: patent US20070197512A1

target: human URAT1 (Homo sapiens, UniProt Q96S37); construct: Human URAT1 full length cDNA was subcloned to expression vector pcDNA3.1; experiment: Uric acid transport inhibitory test using human URAT1-expressing cells; conditions: human URAT1-expressing HEK293 cells, 14C-uric acid 50 μM, uptake 5 min, room temperature; read-out: hURAT1 IC50
IC50 for assorted molecules
Readout type: IC50

Molecule | Endpoint result
CC(C)c1cccc2c1O[C@H](C(C)C)C(=S)N2CC(=O)O | 0.3 to 3 µM
CC(C)c1cccc2c1OC(C(C)C)CN2C(=O)C(=O)O (stereo not drawn) | ≥ 3 µM
Cc1cccc2c1OC(C(C)C)CN2C(=O)/C=C/C(=O)O (stereo not drawn) | ≥ 3 µM
Cc1cc(C)c2c(c1)N(CCC(=O)O)C(=O)C(C)(C)O2 | ≥ 3 µM
CC(C)C1Sc2ccccc2N(CC(=O)O)C1=O (stereo not drawn) | ≥ 3 µM
Cc1ccc2c(c1)N(C(=O)/C=C/C(=O)O)CC(c1ccccc1)O2 (stereo not drawn) | ≥ 3 µM
CC(C)C1CN(C(=O)/C=C/C(=O)O)c2cccc(Br)c2O1 (stereo not drawn) | ≥ 3 µM
CC(C)[C@@H]1Oc2c(Cl)cc(Cl)cc2N(CCC(=O)O)C1=O | 0.3 to 3 µM
COc1cc(C)c2c(c1)N(CCC(=O)O)C(=O)C(C(C)C)O2 (stereo not drawn) | < 0.3 µM

* * *

target: human URAT1 (Homo sapiens, UniProt Q96S37); construct: Human URAT1 full length cDNA was subcloned to expression vector pcDNA3.1; assay: Uric acid transport inhibitory test using human URAT1-expressing cells; conditions: human URAT1-expressing HEK293 cells, 14C-uric acid 50 μM, uptake 5 min, room temperature; read-out: hURAT1 IC50
pIC50: −log10 of the molar value.
Readings of pIC50 for the listed compounds

Compound | pIC50
Cc1cc(C)c2c(c1)N(CCC(=O)O)C(=O)[C@@H](C(C)C)O2 | > 6.52
Cc1ccc2c(c1)N(CCC(=O)O)C(=O)C(c1ccccc1)O2 (centres unmarked) | 5.52 to 6.52
Cc1ccc2c(c1)OC(C(C)C)C(=O)N2CCC(=O)O (centres unmarked) | 5.52 to 6.52
Cc1cc(C)c2c(c1)N(CCC(=O)O)C(=O)C(c1ccccc1)O2 (centres unmarked) | > 6.52
CCC1Oc2c(C(C)C)cccc2N(CCC(=O)O)C1=O (centres unmarked) | 5.52 to 6.52
CCc1cc(C)c2c(c1)N(CCC(=O)O)C(=O)C(C(C)C)O2 (centres unmarked) | > 6.52
CC(C)c1cccc2c1OC(C)(C)C(=O)N2CCC(=O)O | ≤ 5.52
O=C(O)/C=C/C(=O)N1CCOc2ccccc21 | ≤ 5.52
CC(C)C1Oc2ccccc2N(CCC(=O)O)C1=O (centres unmarked) | ≤ 5.52
CC(C)C1Oc2ccccc2N(CC(=O)O)C1=S (centres unmarked) | ≤ 5.52
Cc1cc(C)c2c(c1)N(CCC(=O)O)C(=O)C(Cc1ccccc1)O2 (centres unmarked) | ≤ 5.52
CCCC1Oc2c(C)cc(C)cc2N(CCC(=O)O)C1=O (centres unmarked) | > 6.52
Cc1cc(C)c2c(c1)N(CCC(=O)O)C(=O)C(C(C)C)O2 (centres unmarked) | > 6.52
O=C(O)CCN1C(=O)C(c2ccccc2)Oc2ccc(Cl)cc21 (centres unmarked) | ≤ 5.52
Cc1ccc2c(c1)OC(C(C)C)CN2C(=O)/C=C/C(=O)O (centres unmarked) | ≤ 5.52
Cc1cc(Cl)c2c(c1)N(CCC(=O)O)C(=O)[C@@H](C(C)C)O2 | > 6.52
CC(C)c1cccc2c1OCC(=S)N2CC(=O)O | ≤ 5.52
O=C(O)CCN1C(=O)C(c2ccccc2)Oc2cc(Cl)ccc21 (centres unmarked) | ≤ 5.52
O=C(O)CN1C(=O)COc2ccccc21 | ≤ 5.52
CC1(C)Oc2ccccc2N(CC(=O)O)C1=S | ≤ 5.52

* * *

target: human URAT1 (Homo sapiens, UniProt Q96S37); construct: Human URAT1 full length cDNA was subcloned to expression vector pcDNA3.1; assay: Uric acid transport inhibitory test using human URAT1-expressing cells; conditions: human URAT1-expressing HEK293 cells, 14C-uric acid 50 μM, uptake 5 min, room temperature; read-out: hURAT1 IC50
pIC50: −log10 of the molar value.

Molecule | pIC50
CC(C)(C)c1cccc2c1OC(c1ccccc1)C(=O)N2CCC(=O)O (stereo not shown) [Example 49] | 5.52 to 6.52
O=C(O)CCCC(=O)N1CCOc2ccccc21 [Example 24] | ≤ 5.52
CC(C)[C@H]1Oc2c(Cl)cc(Cl)cc2N(CCC(=O)O)C1=O [Example 108] | > 6.52
Cc1cc(C)c2c(c1)N(CCC(=O)O)C(=O)[C@@H](CC(C)C)O2 [Example 91] | > 6.52
CC(C)C1Oc2ccc(C(F)(F)F)cc2N(CCC(=O)O)C1=O (stereo not shown) [Example 97] | 5.52 to 6.52
Cc1cccc2c1OC(C(C)C)C(=O)N2CCC(=O)O (stereo not shown) [Example 44] | > 6.52
CC(C)C1Oc2ccc(Cl)cc2N(CCC(=O)O)C1=O (stereo not shown) [Example 63] | > 6.52
CC(C)c1cccc2c1OC(c1ccccc1)CN2C(=O)/C=C/C(=O)O (stereo not shown) [Example 45] | 5.52 to 6.52
Cc1cc(C)c2c(c1)N(C(=O)/C=C/C(=O)O)CCO2 [Example 85] | ≤ 5.52
CC(C)c1cccc2c1OC(C(C)C)CN2C(=O)CCC(=O)O (stereo not shown) [Example 21] | ≤ 5.52

* * *

Measured IC50, listed per entry for reference.
Molecular target: human URAT1 (Homo sapiens)
Construct: Human URAT1 full length cDNA was subcloned to expression vector pcDNA3.1
Sequence (Q96S37 1-553): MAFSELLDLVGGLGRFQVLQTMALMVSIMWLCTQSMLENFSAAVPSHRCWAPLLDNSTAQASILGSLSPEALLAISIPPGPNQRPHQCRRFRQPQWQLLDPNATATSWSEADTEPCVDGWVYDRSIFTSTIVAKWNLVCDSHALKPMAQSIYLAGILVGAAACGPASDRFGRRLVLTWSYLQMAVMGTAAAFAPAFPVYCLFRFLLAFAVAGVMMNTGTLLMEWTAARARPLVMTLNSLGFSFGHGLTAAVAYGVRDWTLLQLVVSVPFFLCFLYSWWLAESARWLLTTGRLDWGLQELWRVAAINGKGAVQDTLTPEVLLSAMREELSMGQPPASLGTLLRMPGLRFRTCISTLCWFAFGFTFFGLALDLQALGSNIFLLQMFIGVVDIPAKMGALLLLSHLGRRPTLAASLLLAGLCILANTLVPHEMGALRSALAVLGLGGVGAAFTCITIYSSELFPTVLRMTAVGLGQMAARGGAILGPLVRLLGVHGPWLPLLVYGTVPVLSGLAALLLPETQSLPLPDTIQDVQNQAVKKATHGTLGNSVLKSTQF
Experiment: Uric acid transport inhibitory test using human URAT1-expressing cells
Conditions: human URAT1-expressing HEK293 cells, 14C-uric acid 50 μM, uptake 5 min, room temperature; read-out: hURAT1 IC50

Molecule | IC50
Cc1cccc2c1OC(c1ccccc1)CN2C(=O)/C=C/C(=O)O (stereo not shown) | ≥ 3 µM
CC[C@H](C)[C@H]1Oc2c(C)cc(C)cc2N(CCC(=O)O)C1=O | < 0.3 µM
CCCCC1Oc2c(C)cc(C)cc2N(CCC(=O)O)C1=O (stereo not shown) | 0.3 to 3 µM
CC(C)c1cccc2c1OC(C(C)C)C(=O)N2CC(=O)O (stereo not shown) | ≥ 3 µM
O=C(O)/C=C\C(=O)N1CCOc2ccccc21 | ≥ 3 µM
CC(C)C1CN(C(=O)/C=C/C(=O)O)c2cc(Cl)ccc2O1 (stereo not shown) | ≥ 3 µM
CC1(C)Oc2ccccc2N(CC(=O)O)C1=O | ≥ 3 µM
CC(C)C1CN(C(=O)/C=C/C(=O)O)c2cccc(C(C)(C)C)c2O1 (stereo not shown) | ≥ 3 µM
Cc1cc(Cl)c2c(c1)N(CCC(=O)O)C(=O)[C@H](C(C)C)O2 | 0.3 to 3 µM
Cc1ccc2c(c1)OC(c1ccccc1)CN2C(=O)/C=C/C(=O)O (stereo not shown) | ≥ 3 µM

* * *

Each record here notes measured pIC50.
Molecular target: human URAT1 (Homo sapiens, UniProt Q96S37)
Construct: Human URAT1 full length cDNA was subcloned to expression vector pcDNA3.1
Sequence (Q96S37 1-553): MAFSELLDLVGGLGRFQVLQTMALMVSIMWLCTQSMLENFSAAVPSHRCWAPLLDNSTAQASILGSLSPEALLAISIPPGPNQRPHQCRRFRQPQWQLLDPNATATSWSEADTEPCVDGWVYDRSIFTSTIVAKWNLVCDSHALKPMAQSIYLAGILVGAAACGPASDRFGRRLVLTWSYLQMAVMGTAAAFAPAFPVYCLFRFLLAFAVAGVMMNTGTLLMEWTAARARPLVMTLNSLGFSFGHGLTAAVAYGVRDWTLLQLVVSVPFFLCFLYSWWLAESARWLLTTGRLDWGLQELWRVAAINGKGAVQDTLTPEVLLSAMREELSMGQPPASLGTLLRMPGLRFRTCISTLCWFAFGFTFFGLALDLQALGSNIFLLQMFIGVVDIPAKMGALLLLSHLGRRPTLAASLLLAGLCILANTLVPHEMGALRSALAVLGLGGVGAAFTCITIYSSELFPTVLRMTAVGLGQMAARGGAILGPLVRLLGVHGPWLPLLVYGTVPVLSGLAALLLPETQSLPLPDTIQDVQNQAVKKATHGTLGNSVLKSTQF
Test: Uric acid transport inhibitory test using human URAT1-expressing cells
Settings: human URAT1-expressing HEK293 cells, 14C-uric acid 50 μM, uptake 5 min, room temperature; read-out: hURAT1 IC50
pIC50: −log10 of the molar value.
Readout type: pIC50

Compound | Endpoint result
O=C(O)/C=C/C(=O)N1CC(c2ccccc2)Oc2cc(Cl)ccc21 (stereo not shown) | ≤ 5.52
O=C(O)CCCCC(=O)N1CCOc2ccccc21 | ≤ 5.52
CC(C)C1Oc2cc([N+](=O)[O-])ccc2N(CCC(=O)O)C1=O (stereo not shown) | ≤ 5.52
CC(C)c1cccc2c1OC(c1ccccc1)C(=O)N2CCC(=O)O (stereo not shown) | > 6.52
CCC1Oc2c(C)cc(C)cc2N(CCC(=O)O)C1=O (stereo not shown) | > 6.52
CC(C)c1cccc2c1O[C@@H](C(C)C)C(=S)N2CC(=O)O | 5.52 to 6.52
CC(C)C1CN(C(=O)/C=C/C(=O)O)c2ccc(Cl)cc2O1 (stereo not shown) | 5.52 to 6.52
CCC1CN(C(=O)/C=C/C(=O)O)c2cccc(C(C)C)c2O1 (stereo not shown) | 5.52 to 6.52
CC(C)C1Sc2ccccc2N(CCC(=O)O)C1=O (stereo not shown) | 5.52 to 6.52
Cc1ccc2c(c1)N(C(=O)/C=C/C(=O)O)CC(C(C)C)O2 (stereo not shown) | 5.52 to 6.52
